Reported IC50 on PIK3CA (human) (UniProt P42336) for assorted compounds, compiled from publications.
MEASURED_PARAMETER: IC50

COMPOUND_STRING	ASSAYED_TARGET	RESULT
Nc1ncc(-c2nc(N3CCOCC3)c3nc(N4CCN(C=O)CC4)n(CC(F)(F)F)c3n2)cn1	PIK3CA (human) (UniProt P42336)	< 0.01 µM
C[C@H](Nc1ccnn2ccnc12)c1cc2cccc(Cl)c2c(C(=O)N2CCOCC2)n1	PIK3CA (human) (UniProt P42336)	< 10 µM
c1ccc2sc(-c3ccc4c(c3)CN(c3ccnc5ccccc35)CCO4)cc2c1	PIK3CA (human) (UniProt P42336)	≥ 2 µM
CCc1ccccc1-n1c(Cn2nc(-c3cc(O)cc(F)c3)c3c(N)ncnc32)nc2scc(C)c2c1=O	PIK3CA (human) (UniProt P42336)	> 10 µM
C[C@@H]1CN(c2nc3c(N4CCOCC4)nc(-c4cnc(N)nc4)nc3n2CC(F)(F)F)CCN1S(C)(=O)=O	PIK3CA (human) (UniProt P42336)	< 0.01 µM
FC[C@@H]1CCCN1[C@H]1CC[C@H](CNc2cc(-n3c(C(F)F)nc4ccccc43)nc(N3CCOCC3)n2)CC1	PIK3CA (human) (UniProt P42336)	2.6 µM
CN1CCN(c2ccc(NC(=O)Nc3ccc(-c4nc(N5CCOCC5)c5ccn(CC(F)(F)F)c5n4)cc3)cc2)CC1	PIK3CA (human) (UniProt P42336)	0.017 µM
